# IC50 annotations
- System tested: Neuronal acetylcholine receptor; alpha3/beta4 (Rattus norvegicus, UniProt P04757+P12392)
- Sequence (P04757 whole entry): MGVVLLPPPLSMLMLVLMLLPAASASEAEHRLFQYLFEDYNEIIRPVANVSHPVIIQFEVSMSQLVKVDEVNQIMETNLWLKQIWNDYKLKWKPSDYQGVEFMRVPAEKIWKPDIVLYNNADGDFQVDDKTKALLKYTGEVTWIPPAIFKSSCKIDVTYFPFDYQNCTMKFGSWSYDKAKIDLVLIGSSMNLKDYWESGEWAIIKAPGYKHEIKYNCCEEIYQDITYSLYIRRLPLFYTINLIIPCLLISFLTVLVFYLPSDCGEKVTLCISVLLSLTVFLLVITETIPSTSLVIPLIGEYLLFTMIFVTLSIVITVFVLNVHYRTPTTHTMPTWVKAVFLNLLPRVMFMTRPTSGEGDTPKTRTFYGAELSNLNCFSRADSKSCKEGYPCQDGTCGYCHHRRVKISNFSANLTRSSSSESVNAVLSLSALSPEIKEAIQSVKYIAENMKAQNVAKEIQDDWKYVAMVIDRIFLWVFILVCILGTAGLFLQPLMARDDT
- Sequence (P12392 whole entry): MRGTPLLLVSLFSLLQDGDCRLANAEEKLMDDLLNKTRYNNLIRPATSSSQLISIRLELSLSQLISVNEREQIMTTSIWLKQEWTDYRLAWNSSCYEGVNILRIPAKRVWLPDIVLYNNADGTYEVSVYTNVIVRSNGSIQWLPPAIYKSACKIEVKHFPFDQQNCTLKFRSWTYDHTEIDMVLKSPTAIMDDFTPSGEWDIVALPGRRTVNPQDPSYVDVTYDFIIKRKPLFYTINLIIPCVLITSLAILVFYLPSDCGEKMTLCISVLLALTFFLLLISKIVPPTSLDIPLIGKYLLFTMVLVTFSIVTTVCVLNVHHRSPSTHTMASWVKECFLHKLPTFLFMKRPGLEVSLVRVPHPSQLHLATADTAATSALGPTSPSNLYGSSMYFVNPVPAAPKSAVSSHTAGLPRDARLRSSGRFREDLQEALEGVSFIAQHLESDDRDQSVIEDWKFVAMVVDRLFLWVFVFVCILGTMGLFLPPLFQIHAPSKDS
- Protocol: Antagonist activity at rat alpha3beta4 nAChR expressed in HEK293 cells by FMP assay
- Assay type: functional, cell-based, Homo sapiens
- Test conditions: read-out: IC50
Write the answer as a number in µM, unit excluded.

// worked examples, IC50 included
C=CC[N+]12CC[C@@H]3[C@@H]4[C@@H]5[C@@H](OCC=C(C1)[C@@H]5C[C@@H]32)N1c2ccccc2[C@@]23CC[N+]5(CC=C)CC6=CCO[C@H]([C@@H]([C@H]12)[C@H]6C[C@@H]35)N4c1ccccc1.[Br-].[Br-] (some centres not stated) ... 100
C[N+]12CC[C@@H]3[C@@H]4/C(=C\N5c6ccccc6[C@@]67CC[N+]8(C)CC9=CCO[C@H]([C@@H]([C@H]56)[C@H]9C[C@@H]78)N4c4ccccc4)[C@@H](C[C@@H]31)/C(=C\CO)C2.[I-].[I-] (some centres not stated) ... 30
COc1ccc(C[N+]23CC[C@@H]4[C@@H]5/C(=C\N6c7ccccc7[C@@]78CC[N+]9(Cc%10ccc(OC)c(OC)c%10)CC%10=CCO[C@H]([C@@H]([C@H]67)[C@H]%10C[C@@H]89)N5c5ccccc5)[C@@H](C[C@@H]42)/C(=C\CO)C3)cc1OC.[Cl-].[Cl-] (some centres not stated) ... 100

From here, focus on the item given below.
Look up and report measured IC50 for this entry: C=CC[N+]12CC[C@@H]3[C@@H]4[C@@H]5[C@@H](OCC=C(C1)[C@@H]5C[C@@H]32)N1c2ccccc2[C@@]23CCN5CC6=CCO[C@H]([C@@H]([C@H]12)[C@H]6C[C@H]53)N4c1ccccc1.[Br-] (some centres not stated) 30
